TEST_METHOD_NOTES: protein stability index of a GFP-peptide fusion (yeast GPS) (PSI 1-4); higher = more stable; sorted into four equal gates, so the index is relative within each strain
TEST_CONDITIONS: doa10∆
Measured protein stability index of individual entries
OBSERVATION_TYPE: protein stability index

EKLLKELENNEFTENEL [ITC1]    3.43
FLSSFDDVLQTIITDCA [YJL039C/NUP192]    2.43
FEYLATVMYQRRSKMNP [PRE4]    2.11
VLDKMHARARGPRAVLT [RET1]    2.88
DQWLEEYKKHFPPNLEK [UBP6]    2.77
LQHLRSRCHLVTKDTKK [SRP68]    2.93
QPSDVMFNDLNSMDISM [MED2]    2.63
TNKGPLAQIWLASNMSN [MCD1]    2.33

---

TEST_METHOD_NOTES: protein stability index of a GFP-peptide fusion (yeast GPS) (PSI 1-4); higher = more stable; sorted into four equal gates, so the index is relative within each strain
TEST_CONDITIONS: san1∆
Threshold rule: protein stability index greater than or equal to 3 is Satisfied; below that, Not satisfied.

LGPRGVSITPGKIEKIA [SRP21]    Not satisfied
PPPPPPSNFEINAEEIV [PRP8]    Not satisfied
GSNNGFGNKPAGSTGFS [YGR119C/NUP57]    Not satisfied
AIDYEPEYEKAMQYVCG [SMC1]    Not satisfied
CSKAMGDLASLVLLNGR [RPP1]    Not satisfied
LPFYAILRSIPDKLLGV [COB]    Not satisfied
ATNRPDTLDPALLRPGR [RPT4]    Not satisfied
NSAIIQNLRKELLIYKK [YIL149C/MLP2]    Satisfied
ENDTTLVKTKELIKNYI [FAS1]    Not satisfied
MNAILTDVKLTLPQPRL [SMD1]    Not satisfied
TNAAFPFHDPEARLFNI [ECM29]    Not satisfied
VATNIVNEDPIFHPMIH [YML103C/NUP188]    Not satisfied
YIEDGRNPDIYTREFVE [NUT2]    Satisfied
FGQRAVLKFAAHTGATP [RPS0A]    Not satisfied
NVYVGMTDMQIQWYKSL [ISW2]    Not satisfied
MTQRAIQSAESIKSQKE [SWI3]    Not satisfied
DTLLLLPTDGGLTSRLQ [POP4]    Satisfied
SDRECPKCHSRENVFFQ [RPB9]    Not satisfied
FRNNKNDNYSSDMENDN [REC8]    Satisfied
QEQYQTNTFEGSGNNNE [SNU114]    Satisfied
GEKTLSSLALVFALHKY [SMC4]    Not satisfied
LSIDKVLKKPNRAMEYD [RET1]    Satisfied

---

Measured protein stability index of individual entries
TEST_METHOD_NOTES: protein stability index of a GFP-peptide fusion (yeast GPS) (PSI 1-4); higher = more stable; sorted into four equal gates, so the index is relative within each strain
TEST_CONDITIONS: doa10∆
OBSERVATION_TYPE: protein stability index

RLENKLSEIESLDEILL [SRP68]    2.97
RREELQQRIREIGLLPE [SMC3]    3.34
QTKSNGTAGGNTFGSSS [YJL041W/NSP1]    3.28
NGNLTSNQLISNYAASN [SWI1]    3.13
AGKWSSKYLIKQIDIPN [ECM29]    1.55
NFKGLAKEKERMLEEAI [YIL149C/MLP2]    3.4
LLTVEEGQLKPGDGSSY [RPC25]    3.43
LESEIASSSAKLIEKKS [SMC2]    2.69
NVYVGMTDMQIQWYKSL [ISW2]    1.96
RGREEAASFKKLYKTPI [PRE10]    2.6
VHDKILEDLVFPTEIVG [RPS7A]    3.3
TPPVVVVGVVGYVETPR [RPL3]    1.81
VAGAGAASGAAAAGGDA [RPP1B]    3.09
KVRLNASEREELALIEE [PRP8]    3.14
LLLSPDQWYCIDKLEDL [ITC1]    3.06
GAIKPFTPKLIYDFITL [ECM29]    1.73
YKAQADTFYMNVESVGS [RPB3]    2.75
SKRPQLGEIPNPMKKHK [SIR4]    2.44
TEAVTQLIGSNIELHSL [PUP1]    3.29
MAAEKILTPESQLKKSK [RPL7A]    3.07
SGTSVFEVEMILMQQQM [SRP54]    3.3
GGLFGNSAQNNSTTSGG [YGR119C/NUP57]    3.08
YENIPIYATFLNESDCL [YDL116W/NUP84]    2.16
ADDEKSDEEEVTEMSNN [BRR2]    3
AYGVLDSNYKWDLSVED [PRE2]    3
SKLNELKKELKLLAKEL [SMC2]    2.92
DETTVPSYYYYVDPETT [ROX3]    2.99
YHGLYTNYEMSYWQKSY [LIN1]    1.75
KKISRLPKFLTVQYVRF [UBP6]    1.65
LSQSRIKIKSLEYEISK [YIL149C/MLP2]    2.08
